Origin of the recorded values: patent US10882837B2

Target: UniProt:P47871
Sequence (P47871 26-477, species assumed): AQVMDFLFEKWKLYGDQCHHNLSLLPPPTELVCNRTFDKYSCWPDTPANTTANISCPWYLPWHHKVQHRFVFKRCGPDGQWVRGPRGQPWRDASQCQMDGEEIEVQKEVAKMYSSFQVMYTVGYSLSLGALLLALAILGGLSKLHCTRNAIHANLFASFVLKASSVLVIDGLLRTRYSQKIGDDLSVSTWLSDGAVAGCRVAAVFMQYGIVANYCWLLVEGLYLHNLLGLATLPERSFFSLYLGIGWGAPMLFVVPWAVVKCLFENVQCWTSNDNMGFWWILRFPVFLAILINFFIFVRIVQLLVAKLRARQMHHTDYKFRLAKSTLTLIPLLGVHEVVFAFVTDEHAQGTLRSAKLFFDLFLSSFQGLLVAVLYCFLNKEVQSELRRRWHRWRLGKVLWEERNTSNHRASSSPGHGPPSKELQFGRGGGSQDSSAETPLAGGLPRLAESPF
Experiment: Glucagon cAMP inhibition assay (Cisbio cAMP Dynamic 2 HTRF)
Settings: GCGR overexpressed CHO-K1 cells or human primary hepatocytes (not specified); glucagon at EC50
endpoint: log10 IC50 (log10 of the value in nM)
Please note: log10 values; quantity IC50; unit nM.

Some solved cases for reference:
{"columns": ["compound", "log10 IC50"],
 "data": [
  ["CCCCC(Nc1ccc(C(=O)NCCC(=O)O)cc1)c1ccc(-c2nc3ccccc3o2)cc1 (stereo not shown)", 3.03],
  ["CC(C)[C@@H](Nc1ccc(C(=O)NCCC(=O)O)cc1)c1ccc(-c2nnc(-c3ccccc3)o2)cc1", 3.47]
]}

INPUT: Fill blank: measured log10 IC50 of the compound CCCC[C@@H](Nc1ccc(C(=O)NCCC(=O)OCC)cc1)c1ccc(-c2nnc(C(F)(F)F)o2)cc1 is ____.
OUTPUT: 2.64

INPUT: Fill blank: measured log10 IC50 of the compound CCCC[C@@H](Nc1ccc(C(=O)NCCC(=O)O)cc1)c1ccc(-c2nc3ccccc3o2)cc1 is ____.
OUTPUT: 3.18

INPUT: Fill blank: measured log10 IC50 of the compound CC(C)C[C@H](Nc1ccc(C(=O)NCCC(=O)O)cc1)c1ccc(-c2nc(-c3ccccc3)no2)cc1 is ____.
OUTPUT: 2.32

INPUT: Fill blank: measured log10 IC50 of the compound CCOC(=O)CCNC(=O)c1ccc(N[C@@H](CC(C)C)c2ccc(-c3noc(-c4ccccc4)n3)cc2)cc1 is ____.
OUTPUT: 1.85

INPUT: Fill blank: measured log10 IC50 of the compound CCCC[C@@H](Nc1ccc(C(=O)NCCC(=O)OCC)cc1)c1ccc(-c2noc(-c3ccccc3)n2)cc1 is ____.
OUTPUT: 2.93
